assay: Solubility of the compound in water at pH 7.4; type: physicochemical
Measure name: solubility

Request: GET /values?readout=solubility&item= Cc1cc(C#N)cc(C)c1Oc1nc(Nc2ccc(C#N)cc2)nc(N)c1Br [ETRAVIRINE]
Result: < 1 µg/mL

====

assay: Selectivity index, ratio of CC50 for human MT4 cells to EC50 for wild-type HIV1 3B infected in human MT4 cells; assay type: toxicity, cell-based; settings: read-out: Ratio CC50/EC50
Measure name: selectivity ratio

Request: GET /values?readout=selectivity ratio&item= "Cc1cc(C)cc(Oc2nc(NCCn3ccc(=O)[nH]c3=O)ncc2Cl)c1"
Result: > 367

Request: GET /values?readout=selectivity ratio&item= "Cc1cc(C#N)cc(C)c1Oc1cc(NCCn2ccc(=O)[nH]c2=O)nc(Cl)n1"
Result: 3

Request: GET /values?readout=selectivity ratio&item= "Cc1cc(C)cc(Oc2cc(NCCn3ccc(=O)[nH]c3=O)nc(Cl)n2)c1"
Result: < 1

Request: GET /values?readout=selectivity ratio&item= "Cc1cc(C)c(Nc2nc(NCCn3ccc(=O)[nH]c3=O)ncc2[N+](=O)[O-])c(C)c1"
Result: ≥ 40

Request: GET /values?readout=selectivity ratio&item= "Cc1cc(/C=C/C#N)cc(C)c1Oc1nc(NCCn2ccc(=O)[nH]c2=O)ncc1Cl"
Result: > 50500

Request: GET /values?readout=selectivity ratio&item= "Cc1cc(/C=C/C#N)cc(C)c1Oc1cc(Cl)nc(NCCn2ccc(=O)[nH]c2=O)n1"
Result: > 2270

Request: GET /values?readout=selectivity ratio&item= "Cc1cc(C)c(Oc2cc(NCCn3ccc(=O)[nH]c3=O)nc(Cl)n2)c(C)c1"
Result: ≤ 2

Request: GET /values?readout=selectivity ratio&item= "Cc1cc(C)c(Oc2nc(Cl)ncc2NCCn2ccc(=O)[nH]c2=O)c(C)c1"
Result: < 1

Request: GET /values?readout=selectivity ratio&item= "Cc1cc(C)c(Oc2cc(Cl)nc(NCCn3ccc(=O)[nH]c3=O)n2)c(C)c1"
Result: 85

Request: GET /values?readout=selectivity ratio&item= "Cc1cc(C)c(Oc2nc(NCCn3ccc(=O)[nH]c3=O)ncc2Cl)c(C)c1"
Result: 317

Request: GET /values?readout=selectivity ratio&item= "Cc1cc(C)cc(Oc2cc(N)nc(NCCn3ccc(=O)[nH]c3=O)n2)c1"
Result: < 1

Request: GET /values?readout=selectivity ratio&item= "Cc1cc(C)c(Nc2nc(NCCn3ccc(=O)[nH]c3=O)ncc2N)c(C)c1"
Result: > 20

Request: GET /values?readout=selectivity ratio&item= "Cc1cc(C#N)cc(C)c1Oc1cc(Cl)nc(NCCn2ccc(=O)[nH]c2=O)n1"
Result: 3

Request: GET /values?readout=selectivity ratio&item= Cc1cn([C@H]2C[C@H](N=[N+]=[N-])[C@@H](CO)O2)c(=O)[nH]c1=O [ZIDOVUDINE]
Result: > 1050

Request: GET /values?readout=selectivity ratio&item= "Cc1cc(C)cc(Oc2cc(Cl)nc(NCCn3ccc(=O)[nH]c3=O)n2)c1"
Result: > 1

====

I'd appreciate it if you could supply selectivity ratio values for the items below.
assay: Selectivity index, ratio of CC50 for human MT4 cells to EC50 for wild-type HIV1 3B infected in human MT4 cells; assay type: toxicity, cell-based; settings: read-out: Ratio CC50/EC50
Number, no unit, nothing else.

Request: GET /values?readout=selectivity ratio&item= "Cc1cc(C#N)cc(C)c1Oc1ccnc(NCCn2ccc(=O)[nH]c2=O)n1"
Result: 5

Request: GET /values?readout=selectivity ratio&item= "Cc1cc(C=CC#N)cc(C)c1Oc1cc(NCCn2ccc(=O)[nH]c2=O)nc(Cl)n1"
Result: 5

Request: GET /values?readout=selectivity ratio&item= "Cc1cc(C)c(Oc2cc(N)nc(NCCn3ccc(=O)[nH]c3=O)n2)c(C)c1"
Result: 44

Request: GET /values?readout=selectivity ratio&item= "Cc1cc(C#N)cc(C)c1Oc1cc(N)nc(NCCn2ccc(=O)[nH]c2=O)n1"
Result: 11

Request: GET /values?readout=selectivity ratio&item= "Cc1cc(C)cc(Oc2ccnc(NCCn3ccc(=O)[nH]c3=O)n2)c1"
Result: 2

Request: GET /values?readout=selectivity ratio&item= "Cc1cc(C)c(Oc2ccnc(NCCn3ccc(=O)[nH]c3=O)n2)c(C)c1"
Result: 515

Just for reference, ChEMBL document CHEMBL4014278 is where these values come from.
